Below, each of the binders is paired with its reported kon value.
assay target: T1, recombinant human IL-6 (human, UniProt P05231 30-212)
T1 construct: Bought from R&D Systems (206-IL-010); Biotinylated or coupled to beads in some assays; also called hIL-6; rhIL-6
T1 sequence (P05231 30-212 limits assumed): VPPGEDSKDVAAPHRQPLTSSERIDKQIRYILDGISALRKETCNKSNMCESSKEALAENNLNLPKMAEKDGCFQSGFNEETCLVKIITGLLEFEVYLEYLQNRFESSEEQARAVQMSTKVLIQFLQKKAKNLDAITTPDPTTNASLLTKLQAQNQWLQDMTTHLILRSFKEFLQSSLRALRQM
assay method text: KinExA 3000, IgG at 200 pM mixed with 100-200 pM human IL-6, free IgG over time

AME-19a (antibody, V domains shown, Tested as IgG; also called 136; human engineered anti-IL-6 (clone AME-19a) antibody) VH: EVQLVESGGGLVQPGGSLRLSCAASGFTFSPFAMSWVRQAPGKGLEWVAKISPGGSWTYYSDTVTGRFTISRDNAKNSLYLQMNSLRAEDTAVYYCARQLWGYYALDIWGQGTTVTVSS VL: EIVLTQSPATLSLSPGERATLSCSASISVSYMYWYQQKPGQAPRLLIYDMSNLASGIPARFSGSGSGTDFTLTISSLEPEDFAVYYCMQWSGYPYTFGGGTKVEIK : 5.5e+06 M⁻¹ s⁻¹

// query Return reported kon. Input binder: AME-20b (antibody, V domains shown, Tested as IgG; also called 140) VH: EVQLVESGGGLVQPGGSLRLSCAASGFQFSSFAMSWVRQAPGKGLEWVAKISPGGSYTYYSDTVTGRFTISRDNAKNSLYLQMNSLRAEDTAVYYCARQLWGYYALDIWGQGTTVTVSS VL: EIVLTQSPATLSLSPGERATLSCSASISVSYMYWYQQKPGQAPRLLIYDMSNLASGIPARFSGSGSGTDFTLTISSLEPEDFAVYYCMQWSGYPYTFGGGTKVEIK
// result 4.7e+06 M⁻¹ s⁻¹
